The reported numbers originate from patent US8927500B2.

- System: SJSA-1 cells
- experiment-notes: Cell lysis by peptidomimetic macrocycles (LDH release)
- Assay type: cell-based
- test-parameters: 6.25 uM, 1 h at 37C
Where a SMILES comes first, the peptide text is derived from it. Bridges are numbered along the chain shown (N, C = ends). [ ]: non-standard residue; d: D form. R8 = C=CCCCCCC[C@@](C)(N)C(=O)O; S5 = C=CCCC[C@](C)(N)C(=O)O; Ac3c = NC1(C(=O)O)CC1; Aib = CC(C)(N)C(=O)O
quantity: 6.25 uM % Lysed cells (1 h LDH) (%)
Write the number in % without appending the unit.

CC(=O)N[C@@H](C)C(=O)N[C@@H](C)C(=O)N[C@@H](CC(C)C)C(=O)N[C@H](C(=O)N[C@@H](Cc1ccccc1)C(=O)N[C@]1(C)CCCCCCC=CCCC[C@@](C)(C(=O)N[C@@H](CO)C(=O)N[C@@H](C)C(=O)N[C@@H](C)C(=O)N[C@@H](C)C(=O)N[C@H](C)C(N)=O)NC(=O)[C@H](CC2CCC2)NC(=O)[C@H](CCC(N)=O)NC(=O)[C@H](C)NC(=O)[C@H](Cc2c[nH]c3ccccc23)NC(=O)[C@H](Cc2ccc(O)cc2)NC(=O)[C@H](CCC(=O)O)NC1=O)[C@@H](C)O (single isomer, unassigned); 0

Please examine the following record next.
Exam item: Fill blank: measured 6.25 uM % Lysed cells (1 h LDH) of the compound CC(=O)N[C@@H](Cc1ccccc1)C(=O)N[C@]1(C)CCCCCCC=CCCC[C@@](C)(C(=O)N[C@@H](C)C(=O)N[C@@H](C)C(=O)NC(C)(C)C(N)=O)NC(=O)[C@H](CC(C)C)NC(=O)C2(CC2)NC(=O)[C@H](CCC(=O)O)NC(=O)[C@H](Cc2c[nH]c3ccccc23)NC(=O)[C@H](Cc2ccc(O)cc2)NC(=O)[C@H](C)NC1=O [compound 22] (Ac-F[R8]AYWE[Ac3c]L[S5]AA[Aib]-NH2; staple 2-9) is ____.
Marked response: 0
